test-name: Biodistribution studies
Type: in vivo, mice
condition-parameters: athymic nude Foxn1^nu, mouse, in vivo, iv, 1 MBq, total radioactivity, Uptake [% IA/g] Lung
*1 amine or outer side, *2 acyl side, *3 side chain or, on linkers, in order; H or OH if unused. Where a SMILES comes first, the peptide text is derived from it. Bridges are numbered along the chain shown (N, C = ends). [ ]: non-standard residue; d: D form. The star is where a group is joined. NODAGA = O=C(O)CN1CCN(CC(=O)O)CCN(C(CCC(=O)*)C(=O)O)CC1; X1 = NC(=O)Nc1ccc(CC(N[*:1])C(=O)[*:2])cc1; Phe(4-Cl) = N[CH](Cc1ccc(Cl)cc1)C(=O)O
measured-metric: tissue uptake at 4 h (%ID/g)
# value in %ID/g; strip the unit string

Look up tissue uptake at 4 h for this compound: CC(O)C1NC(=O)C(CCCCN)NC(=O)C(Cc2ccc(NC(N)=O)cc2)NC(=O)C(Cc2ccc(O)cc2)NC(=O)C(NC(=O)C(Cc2ccc(Cl)cc2)NC(=O)CCC(C(=O)O)N2CCN(CC(=O)O)CCN(CC(=O)O)CC2)CSSCC(C(=O)NC(Cc2ccc(O)cc2)C(N)=O)NC1=O (stereo not shown) [[^61Cu]Cu-NODAGA-LM3, metal not drawn] ({NODAGA}-[Phe(4-Cl)]CY[X1]KTCY-NH2; disulfide 2-7; configuration not given here)
0.42

---

test-name: in vivo
condition-parameters: athymic nude Foxn1^nu, mouse, total radioactivity, Uptake Heart
*1 amine or outer side, *2 acyl side, *3 side chain or, on linkers, in order; H or OH if unused. Where a SMILES comes first, the peptide text is derived from it. Bridges are numbered along the chain shown (N, C = ends). [ ]: non-standard residue; d: D form. The star is where a group is joined. NODAGA = O=C(O)CN1CCN(CC(=O)O)CCN(C(CCC(=O)*)C(=O)O)CC1; X1 = NC(=O)Nc1ccc(CC(N[*:1])C(=O)[*:2])cc1; Phe(4-Cl) = N[CH](Cc1ccc(Cl)cc1)C(=O)O
measured-metric: tissue uptake at 4 h (%ID/g)
# value in %ID/g; strip the unit string

Look up tissue uptake at 4 h for this compound: CC(O)C1NC(=O)C(CCCCN)NC(=O)C(Cc2ccc(NC(N)=O)cc2)NC(=O)C(Cc2ccc(O)cc2)NC(=O)C(NC(=O)C(Cc2ccc(Cl)cc2)NC(=O)CCC(C(=O)O)N2CCN(CC(=O)O)CCN(CC(=O)O)CC2)CSSCC(C(=O)NC(Cc2ccc(O)cc2)C(N)=O)NC1=O (stereo not shown) [[^61Cu]Cu-NODAGA-LM3, metal not drawn] ({NODAGA}-[Phe(4-Cl)]CY[X1]KTCY-NH2; disulfide 2-7; configuration not given here)
0.14

---

test-name: in vivo
condition-parameters: athymic nude Foxn1^nu, mouse, total radioactivity, Uptake Liver
*1 amine or outer side, *2 acyl side, *3 side chain or, on linkers, in order; H or OH if unused. Where a SMILES comes first, the peptide text is derived from it. Bridges are numbered along the chain shown (N, C = ends). [ ]: non-standard residue; d: D form. The star is where a group is joined. NODAGA = O=C(O)CN1CCN(CC(=O)O)CCN(C(CCC(=O)*)C(=O)O)CC1; X1 = NC(=O)Nc1ccc(CC(N[*:1])C(=O)[*:2])cc1; Phe(4-Cl) = N[CH](Cc1ccc(Cl)cc1)C(=O)O
measured-metric: tissue uptake at 4 h (%ID/g)
# value in %ID/g; strip the unit string

Look up tissue uptake at 4 h for this compound: CC(O)C1NC(=O)C(CCCCN)NC(=O)C(Cc2ccc(NC(N)=O)cc2)NC(=O)C(Cc2ccc(O)cc2)NC(=O)C(NC(=O)C(Cc2ccc(Cl)cc2)NC(=O)CCC(C(=O)O)N2CCN(CC(=O)O)CCN(CC(=O)O)CC2)CSSCC(C(=O)NC(Cc2ccc(O)cc2)C(N)=O)NC1=O (stereo not shown) [[^61Cu]Cu-NODAGA-LM3, metal not drawn] ({NODAGA}-[Phe(4-Cl)]CY[X1]KTCY-NH2; disulfide 2-7; configuration not given here)
0.96

---

test-name: Biodistribution studies
Format: in vivo, mice
condition-parameters: athymic nude Foxn1^nu, mouse, in vivo, iv, 1 MBq, total radioactivity, Tumor-to-organ uptake ratio Tumor/Liver
*1 amine or outer side, *2 acyl side, *3 side chain or, on linkers, in order; H or OH if unused. Where a SMILES comes first, the peptide text is derived from it. Bridges are numbered along the chain shown (N, C = ends). [ ]: non-standard residue; d: D form. The star is where a group is joined. NODAGA = O=C(O)CN1CCN(CC(=O)O)CCN(C(CCC(=O)*)C(=O)O)CC1; X1 = NC(=O)Nc1ccc(CC(N[*:1])C(=O)[*:2])cc1; Phe(4-Cl) = N[CH](Cc1ccc(Cl)cc1)C(=O)O
measured-metric: tissue to tissue ratio at 4 h
Reply briefly: the number, and no unit.

Look up tissue to tissue ratio at 4 h for this compound: CC(O)C1NC(=O)C(CCCCN)NC(=O)C(Cc2ccc(NC(N)=O)cc2)NC(=O)C(Cc2ccc(O)cc2)NC(=O)C(NC(=O)C(Cc2ccc(Cl)cc2)NC(=O)CCC(C(=O)O)N2CCN(CC(=O)O)CCN(CC(=O)O)CC2)CSSCC(C(=O)NC(Cc2ccc(O)cc2)C(N)=O)NC1=O (stereo not shown) [[^61Cu]Cu-NODAGA-LM3, metal not drawn] ({NODAGA}-[Phe(4-Cl)]CY[X1]KTCY-NH2; disulfide 2-7; configuration not given here)
26

---

test-name: Biodistribution studies
Type: in vivo, mice
condition-parameters: athymic nude Foxn1^nu, mouse, tumor / all organs except kidneys, iv, 1 MBq, total radioactivity, 4 hours post-injection; read-out: tumor-to-organ uptake ratio, all the organs except for kidneys
Experimental: The dose of the administered radiopharmaceutical was 1 MBq ([…]) diluted to 100 μL with saline solution. The mice were euthanized at 4 hours post-injection, and the organs of interest were collected, rinsed, blotted, weighed, and analyzed in a gamma counter. The results were expressed as the percentage of injected activity per gram of tissue (% IA/g) and reported as mean±standard deviation in Table 32.
*1 amine or outer side, *2 acyl side, *3 side chain or, on linkers, in order; H or OH if unused. Where a SMILES comes first, the peptide text is derived from it. Bridges are numbered along the chain shown (N, C = ends). [ ]: non-standard residue; d: D form. The star is where a group is joined. NODAGA = O=C(O)CN1CCN(CC(=O)O)CCN(C(CCC(=O)*)C(=O)O)CC1; X1 = NC(=O)Nc1ccc(CC(N[*:1])C(=O)[*:2])cc1; Phe(4-Cl) = N[CH](Cc1ccc(Cl)cc1)C(=O)O
measured-metric: tissue to tissue ratio at 4 h

Look up tissue to tissue ratio at 4 h for this compound: CC(O)C1NC(=O)C(CCCCN)NC(=O)C(Cc2ccc(NC(N)=O)cc2)NC(=O)C(Cc2ccc(O)cc2)NC(=O)C(NC(=O)C(Cc2ccc(Cl)cc2)NC(=O)CCC(C(=O)O)N2CCN(CC(=O)O)CCN(CC(=O)O)CC2)CSSCC(C(=O)NC(Cc2ccc(O)cc2)C(N)=O)NC1=O (stereo not shown) [[^61Cu]Cu-NODAGA-LM3, metal not drawn] ({NODAGA}-[Phe(4-Cl)]CY[X1]KTCY-NH2; disulfide 2-7; configuration not given here)
> 5

---

test-name: in vivo
condition-parameters: female, athymic nude Foxn1^nu, mouse, iv, 0.15 MBq, total radioactivity, Uptake Lung
*1 amine or outer side, *2 acyl side, *3 side chain or, on linkers, in order; H or OH if unused. Where a SMILES comes first, the peptide text is derived from it. Bridges are numbered along the chain shown (N, C = ends). [ ]: non-standard residue; d: D form. The star is where a group is joined. NODAGA = O=C(O)CN1CCN(CC(=O)O)CCN(C(CCC(=O)*)C(=O)O)CC1; X1 = NC(=O)Nc1ccc(CC(N[*:1])C(=O)[*:2])cc1; Phe(4-Cl) = N[CH](Cc1ccc(Cl)cc1)C(=O)O
measured-metric: tissue uptake at 4 h (%ID/g)
# value in %ID/g; strip the unit string

Look up tissue uptake at 4 h for this compound: CC(O)C1NC(=O)C(CCCCN)NC(=O)C(Cc2ccc(NC(N)=O)cc2)NC(=O)C(Cc2ccc(O)cc2)NC(=O)C(NC(=O)C(Cc2ccc(Cl)cc2)NC(=O)CCC(C(=O)O)N2CCN(CC(=O)O)CCN(CC(=O)O)CC2)CSSCC(C(=O)NC(Cc2ccc(O)cc2)C(N)=O)NC1=O (stereo not shown) [[^61Cu]Cu-NODAGA-LM3, metal not drawn] ({NODAGA}-[Phe(4-Cl)]CY[X1]KTCY-NH2; disulfide 2-7; configuration not given here)
0.6

---

test-name: Biodistribution studies
Format: in vivo, mice
condition-parameters: athymic nude Foxn1^nu, mouse, kidneys, iv, 1 MBq, total radioactivity, 4 hours post-injection, 1 MBq i.v.; read-out: Uptake [% IA/g] Kidneys
*1 amine or outer side, *2 acyl side, *3 side chain or, on linkers, in order; H or OH if unused. Where a SMILES comes first, the peptide text is derived from it. Bridges are numbered along the chain shown (N, C = ends). [ ]: non-standard residue; d: D form. The star is where a group is joined. NODAGA = O=C(O)CN1CCN(CC(=O)O)CCN(C(CCC(=O)*)C(=O)O)CC1; X1 = NC(=O)Nc1ccc(CC(N[*:1])C(=O)[*:2])cc1; Phe(4-Cl) = N[CH](Cc1ccc(Cl)cc1)C(=O)O
measured-metric: tissue uptake at 4 h (%ID/g)
# value in %ID/g; strip the unit string

Look up tissue uptake at 4 h for this molecule: CC(O)C1NC(=O)C(CCCCN)NC(=O)C(Cc2ccc(NC(N)=O)cc2)NC(=O)C(Cc2ccc(O)cc2)NC(=O)C(NC(=O)C(Cc2ccc(Cl)cc2)NC(=O)CCC(C(=O)O)N2CCN(CC(=O)O)CCN(CC(=O)O)CC2)CSSCC(C(=O)NC(Cc2ccc(O)cc2)C(N)=O)NC1=O (stereo not shown) [[^61Cu]Cu-NODAGA-LM3, metal not drawn] ({NODAGA}-[Phe(4-Cl)]CY[X1]KTCY-NH2; disulfide 2-7; configuration not given here)
3.87
